Experiment: Relaxation rate measurement (R1, R2) in PBS and in PBS solution of HSA
Assay type: physicochemical
Conditions: PBS pH 7.4, 64 MHz (1.5 T), 293K
In this section we review reported R1 values for a set of compounds.
Numeric only. Scale: mM⁻¹ s⁻¹

The examples below pair each entry with its known result.
Record O=C([O-])CN1CCN(CC(=O)[O-])CCN([C@H](CO)[C@H](O)CO)CCN(CC(=O)[O-])CC1.[Gd+3] (racemic) [Gadovist, Gd-BT-DO3A, reference compound] , field R1: 4.38

What the record says about NCCNC(=O)C1CCC(CNC(=O)CN2CCN(CC(=O)[O-])CCN(CC(=O)[O-])CCN(CC(=O)[O-])CC2)CC1.[Gd+3] (stereo not shown) [2c] : R1 is 3.68

The value of R1 measured for the compound O=C([O-])CN1CCN(CC(=O)[O-])CCN(CC(=O)NCC2CCCCC2)CCN(CC(=O)[O-])CC1.[Gd+3] [2e] turned out to be 4.49

More entries:
Looking up CNC[C@H](O)[C@@H](O)[C@H](O)[C@H](O)CO.O=C([O-])CN1CCN(CC(=O)[O-])CCN(CC(=O)O)CCN(CC(=O)[O-])CC1.[Gd+3] [Dotarem, Gd-DOTA, reference compound] , I see its R1 listed as 3.59

So for NC1CCC(NC(=O)CN2CCN(CC(=O)[O-])CCN(CC(=O)[O-])CCN(CC(=O)[O-])CC2)CC1.[Gd+3] (stereo not shown) [2d] , the logged R1 turned out to be 3.94

For record CCOC(=O)C1CCC(CNC(=O)CN2CCN(CC(=O)[O-])CCN(CC(=O)[O-])CCN(CC(=O)[O-])CC2)CC1.[Gd+3] (stereo not shown) [2a] the listed R1 is 4.84

For reference, reported R1 for O=C([O-])CN1CCN(CC(=O)[O-])CCN(CC(=O)NCC2CCC(C(=O)O)CC2)CCN(CC(=O)[O-])CC1.[Gd+3] (stereo not shown) [2b] stands at 3.87
